All values here come from paper PMC2933939.

Tested on: HCT-116 colon cancer cells
procedure summary: 3H-thymidine uptake cytotoxicity assay
Assay type: cell-based
Non-standard residues stand in square brackets, D forms with d. Residues, ends and D or L forms follow the SMILES beside them. NMeK = CN[C@@H](CCCCN)C(=O)O
readout name: cytotoxicity (in words)

>  <compound>
CC(C)C[C@@H]1NC(=O)[C@H](Cc2ccccc2)NC(=O)[C@H](CCCCN)NC(=O)[C@H](CC(C)C)NC(=O)[C@H](C(C)C)NC1=O [Compound 32, Phe-Leu-Val-Leu-Lys] (cyclo(FLVLK))

>  <measurement target>
HCT-116 colon cancer cells

>  <val>
inactive

$$$$
>  <compound>
CC(C)C[C@@H]1NC(=O)[C@H](Cc2ccccc2)NC(=O)[C@H](CCCCN)NC(=O)[C@H](CC(C)C)NC(=O)[C@@H](C(C)C)NC1=O [Compound 37, Phe-Leu-D-Val-Leu-Lys] (cyclo(FL[dV]LK))

>  <measurement target>
HCT-116 colon cancer cells

>  <val>
inactive

$$$$
>  <compound>
CC(C)C[C@@H]1NC(=O)[C@H](Cc2ccccc2)NC(=O)[C@H](CCCCN)N(C)C(=O)[C@H](CC(C)C)NC(=O)[C@H](C(C)C)NC1=O [Compound 35, Phe-Leu-Val-Leu-N-Me-Lys] (cyclo(FLVL[NMeK]))

>  <measurement target>
HCT-116 colon cancer cells

>  <val>
inactive

$$$$
